experiment: Stability tests for target pentacyclic triterpenoid acids; conditions: nominal level 3.28 nmol/L
Recorded Stability, 4 ℃ Refrigerator (3 day, %) values for a group of molecules are listed next.
Your answer should be a plain number; it is taken to be in %.

Recorded results for 3 molecules are shown here.
molecule="CC1(C)CC[C@]2(C(=O)O)CC[C@]3(C)C(=CC[C@@H]4[C@@]5(C)CCC(=O)C(C)(C)[C@@H]5CC[C@]43C)[C@@H]2C1 [oleanonic acid]" readout_kind="Stability, 4 ℃ Refrigerator (3 day, %)" reading_unit=% observed=85.84
molecule="C=C(C)[C@@H]1CC[C@]2(C(=O)O)CC[C@]3(C)[C@H](CC[C@@H]4[C@@]5(C)CC[C@@H](O)C(C)(C)[C@@H]5CC[C@]43C)[C@@H]12 [epibetulinic acid]" readout_kind="Stability, 4 ℃ Refrigerator (3 day, %)" reading_unit=% observed=113.34
molecule="C=C(C)[C@@H]1CC[C@]2(C(=O)O)CC[C@]3(C)[C@H](CC[C@@H]4[C@@]5(C)CC[C@H](O)C(C)(C)[C@@H]5CC[C@]43C)[C@@H]12 [betulinic acid]" readout_kind="Stability, 4 ℃ Refrigerator (3 day, %)" reading_unit=% observed=100.20

Need Stability, 4 ℃ Refrigerator (3 day, %) of CC1(C)CC[C@]2(C(=O)O)CC[C@]3(C)C(=CC[C@@H]4[C@@]5(C)CC[C@H](O)C(C)(C)[C@@H]5CC[C@]43C)[C@@H]2C1 [oleanolic acid] , thanks.
105.69

----------
# Stability, 4 ℃ Refrigerator (3 day, %) listing for each entry below
assay: Stability tests for target pentacyclic triterpenoid acids; settings: nominal level 20.48 nmol/L
Write the number in % without appending the unit.

Look over these answered cases.
compound=C=C(C)[C@@H]1CC[C@]2(C(=O)O)CC[C@]3(C)[C@H](CC[C@@H]4[C@@]5(C)CC[C@H](O)C(C)(C)[C@@H]5CC[C@]43C)[C@@H]12 readout_kind="Stability, 4 ℃ Refrigerator (3 day, %)" observed=102.78
compound=CC1(C)CC[C@]2(C(=O)O)CC[C@]3(C)C(=CC[C@@H]4[C@@]5(C)CC[C@H](O)C(C)(C)[C@@H]5CC[C@]43C)[C@@H]2C1 readout_kind="Stability, 4 ℃ Refrigerator (3 day, %)" observed=102.19
compound="C=C(C)[C@@H]1CC[C@]2(C(=O)O)CC[C@]3(C)[C@H](CC[C@@H]4[C@@]5(C)CC[C@@H](O)C(C)(C)[C@@H]5CC[C@]43C)[C@@H]12 [epibetulinic acid]" readout_kind="Stability, 4 ℃ Refrigerator (3 day, %)" observed=105.44

Please look at the following compound next.
Tell me the measured Stability, 4 ℃ Refrigerator (3 day, %) of CC1(C)CC[C@]2(C(=O)O)CC[C@]3(C)C(=CC[C@@H]4[C@@]5(C)CCC(=O)C(C)(C)[C@@H]5CC[C@]43C)[C@@H]2C1 , please.
103.95

----------
assay: Stability tests for target pentacyclic triterpenoid acids; conditions: nominal level 3.28 nmol/L
readout-kind: Stability, Room temperature (24 h, %)
Write the value in % as a bare number.

Previously resolved entries follow.
molecule=CC1(C)CC[C@]2(C(=O)O)CC[C@]3(C)C(=CC[C@@H]4[C@@]5(C)CC[C@H](O)C(C)(C)[C@@H]5CC[C@]43C)[C@@H]2C1 readout_kind="Stability, Room temperature (24 h, %)" observed=103.28
molecule=C=C(C)[C@@H]1CC[C@]2(C(=O)O)CC[C@]3(C)[C@H](CC[C@@H]4[C@@]5(C)CC[C@H](O)C(C)(C)[C@@H]5CC[C@]43C)[C@@H]12 readout_kind="Stability, Room temperature (24 h, %)" observed=98.14
molecule="C=C(C)[C@@H]1CC[C@]2(C(=O)O)CC[C@]3(C)[C@H](CC[C@@H]4[C@@]5(C)CC[C@@H](O)C(C)(C)[C@@H]5CC[C@]43C)[C@@H]12 [epibetulinic acid]" readout_kind="Stability, Room temperature (24 h, %)" observed=104.88

Moving on to another molecule below.
Given CC1(C)CC[C@]2(C(=O)O)CC[C@]3(C)C(=CC[C@@H]4[C@@]5(C)CCC(=O)C(C)(C)[C@@H]5CC[C@]43C)[C@@H]2C1 , state its recorded Stability, Room temperature (24 h, %).
86.92

----------
molecular target: CYP3A4 (Homo sapiens); experiment: CYP3A4-catalyzed NEN 4-hydroxylation in HLMs (fluorescence-based assay)
Sequence (P08684 whole entry): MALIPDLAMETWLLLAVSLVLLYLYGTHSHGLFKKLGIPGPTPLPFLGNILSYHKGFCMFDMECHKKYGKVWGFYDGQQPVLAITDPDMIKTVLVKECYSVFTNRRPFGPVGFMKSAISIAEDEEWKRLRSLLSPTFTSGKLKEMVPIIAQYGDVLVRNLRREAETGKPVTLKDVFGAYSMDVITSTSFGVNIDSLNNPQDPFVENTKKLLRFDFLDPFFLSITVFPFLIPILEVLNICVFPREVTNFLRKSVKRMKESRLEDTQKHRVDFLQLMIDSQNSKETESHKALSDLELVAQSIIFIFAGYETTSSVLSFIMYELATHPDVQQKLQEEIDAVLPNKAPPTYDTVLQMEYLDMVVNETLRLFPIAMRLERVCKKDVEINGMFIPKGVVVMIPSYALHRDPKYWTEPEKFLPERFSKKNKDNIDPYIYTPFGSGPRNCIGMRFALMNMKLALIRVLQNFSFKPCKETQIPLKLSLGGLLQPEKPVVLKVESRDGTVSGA
readout-kind: IC50 (µM)
Give just the number in µM; leave the unit off.

compound="C[C@H]1[C@H](C)CC[C@]2(C(=O)O)CC[C@]3(C)C(=CC[C@@H]4[C@@]5(C)C[C@@H](O)[C@H](O)C(C)(C)[C@@H]5CC[C@]43C)[C@H]12 [corosolic acid]" target_system="CYP3A4 (Homo sapiens)" readout_kind=IC50 observed=41.9
compound="CC1(C)CC[C@]2(C(=O)O)CC[C@]3(C)C(=CC[C@@H]4[C@@]5(C)CCC(=O)C(C)(C)[C@@H]5CC[C@]43C)[C@@H]2C1 [oleanonic acid]" target_system="CYP3A4 (Homo sapiens)" readout_kind=IC50 observed=0.8
compound="C=C(C)[C@@H]1CC[C@]2(C(=O)O)CC[C@]3(C)[C@H](CC[C@@H]4[C@@]5(C)CC[C@@H](O)C(C)(C)[C@@H]5CC[C@]43C)[C@@H]12 [epibetulinic acid]" target_system="CYP3A4 (Homo sapiens)" readout_kind=IC50 observed=0.47

Please give the measured IC50 for this compound: C=C(C)[C@@H]1CC[C@]2(C(=O)O)CC[C@]3(C)[C@H](CC[C@@H]4[C@@]5(C)CC[C@H](O)C(C)(C)[C@@H]5CC[C@]43C)[C@@H]12 [betulinic acid]
4.11

Repeat with CC1(C)CC[C@]2(C(=O)O)CC[C@]3(C)C(=CC[C@@H]4[C@@]5(C)C[C@@H](O)[C@H](O)C(C)(C)[C@@H]5CC[C@]43C)[C@@H]2C1 [maslinic acid]
3.44

----------
test: Pharmacokinetic interaction between Styrax and midazolam (i.v. and i.g.) in rats; conditions: male, Sprague-Dawley, rat, plasma, po, 20 mg/kg, AUC(0-inf), rats; midazolam i.g. 20 mg/kg; pretreated with Soybean oil
readout-kind: AUC(0-inf) (ng·h/mL)
Could you give me the number in ng·h/mL? Just the number is fine.

What does the data say about its AUC(0-inf)? Entry: Cc1ncc2n1-c1ccc(Cl)cc1C(c1ccccc1F)=NC2
211

----------
test: Stability tests for target pentacyclic triterpenoid acids; conditions: nominal level 128.00 nmol/L
readout-kind: Stability, 4 ℃ Refrigerator (3 day, %)
Field format: number, assumed %, no unit text.

Past entries and their recorded results:
compound=CC1(C)CC[C@]2(C(=O)O)CC[C@]3(C)C(=CC[C@@H]4[C@@]5(C)CCC(=O)C(C)(C)[C@@H]5CC[C@]43C)[C@@H]2C1 reading_unit=% observed=100.64
compound=C=C(C)[C@@H]1CC[C@]2(C(=O)O)CC[C@]3(C)[C@H](CC[C@@H]4[C@@]5(C)CC[C@H](O)C(C)(C)[C@@H]5CC[C@]43C)[C@@H]12 reading_unit=% observed=102.12
compound=CC1(C)CC[C@]2(C(=O)O)CC[C@]3(C)C(=CC[C@@H]4[C@@]5(C)CC[C@H](O)C(C)(C)[C@@H]5CC[C@]43C)[C@@H]2C1 reading_unit=% observed=104.96

// switching to the query compound
Any idea what Stability, 4 ℃ Refrigerator (3 day, %) was measured for C=C(C)[C@@H]1CC[C@]2(C(=O)O)CC[C@]3(C)[C@H](CC[C@@H]4[C@@]5(C)CC[C@@H](O)C(C)(C)[C@@H]5CC[C@]43C)[C@@H]12 [epibetulinic acid] ?
107.19

----------
assay: Stability tests for target pentacyclic triterpenoid acids; details: nominal level 20.48 nmol/L
Consider the following molecules and their measured Stability, Room temperature (24 h, %) readings.

Reference set, count: 3
molecule="C=C(C)[C@@H]1CC[C@]2(C(=O)O)CC[C@]3(C)[C@H](CC[C@@H]4[C@@]5(C)CC[C@H](O)C(C)(C)[C@@H]5CC[C@]43C)[C@@H]12 [betulinic acid]" observed=102.89%
molecule="CC1(C)CC[C@]2(C(=O)O)CC[C@]3(C)C(=CC[C@@H]4[C@@]5(C)CCC(=O)C(C)(C)[C@@H]5CC[C@]43C)[C@@H]2C1 [oleanonic acid]" observed=101.86%
molecule="CC1(C)CC[C@]2(C(=O)O)CC[C@]3(C)C(=CC[C@@H]4[C@@]5(C)CC[C@H](O)C(C)(C)[C@@H]5CC[C@]43C)[C@@H]2C1 [oleanolic acid]" observed=99.64%

Could you now consider this next molecule?
Field request: Stability, Room temperature (24 h, %) | item: C=C(C)[C@@H]1CC[C@]2(C(=O)O)CC[C@]3(C)[C@H](CC[C@@H]4[C@@]5(C)CC[C@@H](O)C(C)(C)[C@@H]5CC[C@]43C)[C@@H]12 [epibetulinic acid]
96.59%

Provenance of the data: paper PMC9469097
